Sourced from PubChem BioAssay (NCI)

System: RPMI-8226 leukemia
EXPERIMENT_DESCRIPTION: NCI tumour cell line growth inhibition, 48 h
Could you please report measured TGI for the items listed next?

// TGI lookup, compound = `O=C(NNC(=O)c1cc(/C=C/c2cccc([N+](=O)[O-])c2)[nH]c(=S)n1)Nc1ccc(Cl)cc1` , result: 52.9 µM

// TGI lookup, compound = CNC1C(O)C(OC2C(N)CC(N)C(OC3OC(C(C)O)C(O)C(O)C3N)C2O)OCC1(C)O (stereo not given) , result: > 100 µM

// TGI lookup, compound = `CC#CCCN(CC#N)Cc1ccccc1` , result: > 100 µM

// TGI lookup, compound = `Cc1cc(OCC(=O)N/N=C/C(Br)=C/c2ccccc2)nc(SCC(=O)N/N=C/C(Br)=C/c2ccccc2)n1` , result: > 100 µM

Others:
// TGI lookup, compound = `COc1ccc(Cc2nccc3cc(OC)c(OC)cc23)cc1OC` , result: > 100 µM

* * *

Could you please report measured TGI for the items listed next?
Test system: SW-620 colon
EXPERIMENT_DESCRIPTION: NCI tumour cell line growth inhibition, 48 h

# example entries with known answers
// TGI lookup, compound = `O=[N+]([O-])c1ccc2ncccc2c1Cl` , result: 16 µM

// TGI lookup, compound = `COc1ccccc1S(=O)(=O)Nc1ccc2c(c1)CN(C)C(=O)N2` , result: > 100 µM

// TGI lookup, compound = `COC(=O)[C@@H]1C[C@@H]2c3ccccc3N(S(=O)(=O)c3ccccc3)[C@@H]2N1C(=O)OC` , result: > 100 µM

// TGI lookup, compound = `CCc1nc(N)nc(N)c1-c1ccc(NCCc2ccccc2)c([N+](=O)[O-])c1` , result: > 79.4 µM

// TGI lookup, compound = `Cn1c(=S)c2[nH]c(SCCN3CCCC3)nc2n(C)c1=O` , result: > 100 µM

Please give TGI, item by item, for the list that follows.
1. COc1cccc(CC2Cc3ccccc3CC(=O)N2)c1 (stereo not given)
2. C=CC[C@@H]1C(=O)[C@@]2(O[Si](C(C)C)(C(C)C)C(C)C)CC[C@@H]1C[C@H]2NC(=O)OCC(Cl)(Cl)Cl
3. Clc1nc2n(c1/C=C/c1cccs1)CCS2
4. C=CC[C@@]1(C)CCCCCCCCC[C@@](C)(CC=C)C1=O
5. COc1cc2nc3cc([N+](=O)[O-])ccc3c(NCCCNCC(C)(C)O)c2cc1OC

[A]
["> 100 µM", "> 100 µM", "> 100 µM", "63.5 µM", "1.51 µM"]

Please give TGI, item by item, for the list that follows.
1. CC(=O)[O-].O=C([CH-]C(=O)c1ccccc1)c1ccccc1.O=C([CH-]C(=O)c1ccccc1)c1ccccc1.[Y+3]
2. O=C(c1ccccc1)c1nc2ccc(C(F)(F)F)cc2[n+]([O-])c1C(F)(F)F
3. CCC(C(=O)[O-])C(=O)[O-].CCC(C(=O)[O-])C(=O)[O-].N.N.NCCCCCCN.[Pt+4].[Pt+4]
4. COc1cc(N(CCC#N)CCC#N)ccc1/C(N=Nc1ccccc1)=N/NC(=O)c1cc(Br)ccc1O
5. CCS(=O)(=O)CCn1cnc2c1c(=O)n(C)c(=O)n2C
6. CCOC(=O)c1cc2c(n1Cc1ccccc1)-c1oncc1CC2

[A]
46 µM
> 100 µM
1.71 µM
> 100 µM
> 100 µM
> 100 µM

Please give TGI, item by item, for the list that follows.
1. CN(C)C(=O)Oc1ccc(-c2cn3cc(NC(=O)c4ccccc4)ccc3n2)cc1
2. C=CCN1C(=O)CS/C1=N/NC(=O)C(O)(c1ccccc1)c1ccccc1
3. O=C1C2c3[nH]c4ccccc4c3[C@@H]3CCCCC3C2C(=O)N1c1ccccc1 (stereo not given in full)

[A]
1: > 100 µM; 2: > 10 µM; 3: 38.8 µM

// TGI lookup, compound = `Cn1c2c(c3ccccc31)CCN(CCCCN1CCN(c3cccc(Cl)c3)CC1)C2=O` , result: 26.4 µM
